Origin of the recorded values: FireProtDB (doi:10.1006/jmbi.1995.0323)

B1: Subtilisin inhibitor, P01006 (parent)
chain: MRNTGAGPSPSVSRPPPSAAPLSGAALAAPGDAPSALYAPSALVLTVGKGVSATTAAPERAVTLTCAPGPSGTHPAAGSACADLAAVGGDLNALTRGEDVMCPMVYDPVLLTVDGVWQGKRVSYERVFSNECEMNAHGSSVFAF

# Variants of: B1
# Test Conditions: Streptomyces albogriseolus; pH 9.5; Thermal; DSC; glycine 25 mM; reversible: yes; structure 3SSI; whole UniProt chain shown
Quantity: unfolding enthalpy (calorimetric) (kcal/mol)
Answer with a number only, understood to be in kcal/mol.

Consider the reported unfolding enthalpy (calorimetric) for these variants:
M134I; 175
M134L; 178
M134V; 184

Ask | What does the record list as unfolding enthalpy (calorimetric) for M134A ?
Reply | 193

Ask | Likewise for M134G ?
Reply | 187
